details: Ebola virus entry assay, green channel fluorescence
Entries with a potency or affinity are not part of this list. The source made the active and inactive calls. How the calls were made is not given here.
Parameter measured: outcome

Example entries begin here.
CCOc1ccc(C(=O)OCCN(CC)CC)cc1 | inactive
CCCS(=O)c1ccc2nc(NC(=O)OC)[nH]c2c1 (stereo not drawn) | inactive
CC[C@H](NC(C)C)[C@H](O)c1ccc(O)c2[nH]c(=O)ccc12 | inactive
Cc1cccc(C)c1NC(=O)C(C)N (stereo not drawn) | inactive
O=C(O)[C@H](O)[C@@H](O)[C@H](O[C@@H]1O[C@H](CO)[C@H](O)[C@H](O)[C@H]1O)[C@H](O)CO | inactive
CCNC(=O)NCc1cccc(Cl)c1 | inactive
C[C@H](N)[C@H](O)c1cccc(O)c1 | inactive
CC(=O)OC/C=C(C)/C=C/C=C(C)/C=C/C1=C(C)CCCC1(C)C | inactive

Request: Suppose we examine the molecule `CCOC(=O)C(=O)c1csc(NC=O)n1` ; what outcome value has been reported?
Response: inactive

Request: Give the measured outcome of `CCOC(=O)N1CCC(n2c(=O)[nH]c3cc(Cl)ccc32)CC1` .
Response: inactive

Request: What does the record list as outcome for `CNC(=O)CN(CCN(CCN(CC(=O)[O-])CC(=O)NC)CC(=O)[O-])CC(=O)[O-].O.[Gd+3]` ?
Response: inactive

Request: What value of outcome has been reported for the following molecule? `COc1ccc2c(c1OC)C(=O)O[C@@H]2[C@H]1c2c(cc3c(c2OC)OCO3)CCN1C`
Response: inactive

Request: Need outcome, item CNC1CCCN(c2c(F)cc3c(=O)c(C(=O)O)cn(C4CC4)c3c2OC)C1 (stereo not drawn)
Response: inactive

Request: Recorded outcome of CCOC(=O)NC(O)C(Cl)(Cl)Cl (stereo not drawn) , please.
Response: inactive

====

Assign activity, negative = inhibition to each entry below.
assay: qHTS profiling for inhibitors of Plasmodium falciparum proliferation (AID 504749);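 further: 0% = DMSO vehicle and full inhibition = artemisinin control; nearly all actives have a fitted effect of over 60% in size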; conditions: P. falciparum in erythrocytes, SYBR Green DNA, 72 h; at 28.7 µM (top of the series); parasite line A
Records with an inconclusive call do not appear.
Dear colleague, please return just the value in %, with no unit written.

Request: What does the data say about its activity, negative = inhibition? Entry: CNC(=O)NC(O)C(Cl)(Cl)Cl (stereo not given)
Response: 0.151

Request: Need activity, negative = inhibition of `CCNc1nc(Cl)nc(NCC)n1` , thanks.
Response: 3.24

Request: So what does the record say about activity, negative = inhibition for CC(C)NCC(O)c1ccc(N)c(C#N)c1 (stereo not given) ?
Response: 10.9

Request: Quick check: activity, negative = inhibition of `OC(O)C(Cl)(Cl)Cl` ?
Response: 9.58

Request: Suppose we examine the compound `CCN(Cc1ccc(Cl)nc1)/C(=C/[N+](=O)[O-])NC` ; what activity, negative = inhibition value has been reported?
Response: 8.19

Request: What value of measured activity, negative = inhibition is listed for `CN1C[C@@H](NS(=O)(=O)N(C)C)C[C@@H]2c3cccc4c3c(cn4C)C[C@H]21` ?
Response: -15.7

Request: Need activity, negative = inhibition, item `O=C(O)c1nn(Cc2ccc(Cl)cc2Cl)c2ccccc12`
Response: -9.19

Request: Consider the compound shown here: `O=c1n(Cl)c(=O)n(Cl)c(=O)n1Cl` What is its recorded activity, negative = inhibition?
Response: 0.0387

Request: Any idea what its activity, negative = inhibition is? The compound is `COP(=O)(OC)OC=C(Cl)Cl`
Response: 5.3

Request: Quick one: activity, negative = inhibition of `C[N+]1(CCC(C(N)=O)(c2ccccc2)c2ccccc2)CCCCC1` ?
Response: -14.5

Request: Find the recorded activity, negative = inhibition belonging to `C[C@H]1C(=O)O[C@@H]2CCN3CC=C(COC(=O)[C@](C)(O)[C@]1(C)O)[C@H]23` and report it.
Response: -7.4

Request: I have this compound here, `CCCCCCCCC(=O)NCc1ccc(O)c(OC)c1` , and I need its recorded activity, negative = inhibition.
Response: -0.439

Request: Data request, read-out activity, negative = inhibition, for `COc1ccc(C(=O)N2CCCC2=O)cc1`
Response: 4.48

Request: Fill in: activity, negative = inhibition of CC(Cc1ccccc1)NCc1ccccc1Cl (stereo not given) is ___
Response: -0.799

Request: For the compound shown here, `Oc1c(Br)cc(Br)cc1Br` , give the reported activity, negative = inhibition.
Response: 0.526

Request: Looking for the measured activity, negative = inhibition of `CCS(=O)(=O)C(C)(C)S(=O)(=O)CC` , can you help?
Response: 9.89

Request: Any idea what activity, negative = inhibition was measured for CCC1(c2ccccc2)CCC(=O)NC1=O (stereo not given) ?
Response: 14.1

Request: Which value of activity, negative = inhibition has been reported for `Cc1ncc2n1-c1ccc(Cl)cc1C(c1ccccc1F)=NC2` in the records?
Response: 7.97

Request: For the compound `CC(C)(C)OC(=O)c1ncn2c1[C@@H]1CCCN1C(=O)c1c(Br)cccc1-2` , what activity, negative = inhibition is on record?
Response: 0.318

Request: Please give the measured activity, negative = inhibition for this compound: CC(C)C(Br)C(=O)NC(N)=O (stereo not given)
Response: 10.2

Request: Recorded activity, negative = inhibition for `COP(=S)(OC)Oc1ccc(Sc2ccc(OP(=S)(OC)OC)cc2)cc1` , please?
Response: 7.58

Request: Endpoint output: activity, negative = inhibition of `COC(=O)C1=CCCN(C)C1` . Value?
Response: 0.472

Request: I would be grateful if you could share the reported activity, negative = inhibition for `C[N+](C)(C)CCOC(=O)C(O)(c1ccccc1)c1ccccc1` .
Response: 12.8

Request: Query (compound): `CNC(=O)Oc1cccc2ccccc12` ; field requested: activity, negative = inhibition
Response: -7.78

Request: Return reported activity, negative = inhibition; argument: `c1cc2c(c(N3CCNCC3)c1)OCCO2`
Response: 8.64

====

target: Cytochrome P450 2C9 (Homo sapiens) (UniProt P11712); assay: Cytochrome P450 family 2 subfamily C member 9 (CYP2C9) small molecule antagonists: luciferase biochemical (cell-free) qHTS assay (AID 1645842); conditions: P450-Glo CYP2C9 enzyme assay, luciferin luminescence; series mostly up to 57.4 µM; further: nearly all actives have a fitted effect of over 55% in size
Sequence (P11712 whole entry, looked up): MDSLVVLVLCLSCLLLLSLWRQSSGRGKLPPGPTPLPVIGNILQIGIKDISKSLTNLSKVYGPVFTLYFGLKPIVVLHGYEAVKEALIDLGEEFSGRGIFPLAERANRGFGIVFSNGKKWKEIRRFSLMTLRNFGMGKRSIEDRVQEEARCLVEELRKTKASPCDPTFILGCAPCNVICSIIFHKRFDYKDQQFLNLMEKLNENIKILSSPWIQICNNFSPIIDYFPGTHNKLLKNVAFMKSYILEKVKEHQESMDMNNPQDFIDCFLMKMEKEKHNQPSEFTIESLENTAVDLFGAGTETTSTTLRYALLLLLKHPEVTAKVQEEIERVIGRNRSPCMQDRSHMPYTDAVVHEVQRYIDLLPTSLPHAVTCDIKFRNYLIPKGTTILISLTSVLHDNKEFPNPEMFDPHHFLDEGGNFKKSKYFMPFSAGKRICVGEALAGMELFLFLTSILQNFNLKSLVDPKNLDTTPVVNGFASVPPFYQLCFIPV
Inconclusive results are not listed. Active and inactive are the calls of the source. The call rests on the fitted dose curve; in most records, active means well fitted inhibition curve with a large enough effect in the repeat runs; inconclusive means weak or mixed curves; inactive means no such curve, though single readings can be large or run the other way.
Output constraint: value belongs to Yes (active), No (inactive)

Request: What call does the record list for `Cc1nnc2n1-c1sc(CCC(=O)N3CCOCC3)cc1C(c1ccccc1Cl)=NC2` ?
Response: No

Request: How was O=C(NC(=O)c1c(F)cccc1F)Nc1cc(Cl)c(OC(F)(F)C(F)C(F)(F)F)cc1Cl (configuration not stated) classified in this test?
Response: Yes

Request: Which outcome was assigned to c1ccc2c(c1)Sc1ccccc1N2CC1CN2CCC1CC2 (configuration not stated) in this test?
Response: No

Request: Called result for `CC(C)(O)C(Cl)(Cl)Cl`
Response: No

Request: # lookup: test call for `Cc1cccc(Cc2cnc[nH]2)c1C`
Response: Yes

Request: Outcome logged for `C#C[C@]1(O)C=C[C@H]2[C@@H]3CCC4=CC(=O)CC[C@@H]4[C@H]3CC[C@@]21CC` in this assay:
Response: Yes

Request: Field: outcome | Entry: CCC1(c2cccc(O)c2)CCCCN(C)C1 (configuration not stated)
Response: No

Request: How did this test come out for `C[C@H]1C(=O)O[C@@H]2CCN3CC=C(COC(=O)[C@](C)(O)[C@]1(C)O)[C@H]23` ?
Response: No

Request: # fetch the recorded call for `OC(c1ccccc1)(c1ccccc1)C1CCNCC1` here
Response: No

Request: Please indicate how the test categorized `O=C(CCCCl)c1ccc(F)cc1` .
Response: No

Request: Which result was noted for this compound in the test: `CCc1cc(OC)c(C[C@H](C)N)cc1OC`
Response: No

Request: Could you kindly confirm the outcome this assay logged for `OC(O)C(Cl)(Cl)Cl` ?
Response: No

Request: Recorded test call requested for `C#C[C@]1(O)CC[C@H]2[C@@H]3CCC4=CC(=O)CCC4=C3C=C[C@@]21CC`
Response: No

Request: Assay outcome for ClC1=C(Cl)C2(Cl)C(CBr)CC1(Cl)C2(Cl)Cl (configuration not stated) : what was it?
Response: No

Request: Per the assay record, what outcome was assigned to C[C@@H]1CN(C2CCC(C#N)(c3ccc(F)cc3)CC2)CC[C@]1(C(=O)O)c1ccccc1 (some centres not stated) ?
Response: No

Request: Given CCN1CCCC1CNC(=O)C(O)(c1ccccc1)c1ccccc1 (configuration not stated) , state the outcome it received in this test.
Response: No

Request: What was the test verdict on `CCOC(=O)c1ncn2c1CN(C)C(=O)c1c(I)cccc1-2` ?
Response: No
